- System: ATP;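 note: ATP exposure 15 min at 22 °C before imaging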
- Experiment Notes: switch fluorescence ratio, 500 uM ATP over buffer (Cy3 cluster intensity, sum of 5 cycles each) (fold (ratio)); higher = stronger signal-on switching upon ATP binding; sequences stand for … in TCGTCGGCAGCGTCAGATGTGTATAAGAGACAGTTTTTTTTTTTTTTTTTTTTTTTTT…TC
- Condition Parameters: aptamer strand: ATP DNA aptamer (quencher-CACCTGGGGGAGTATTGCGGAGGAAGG + anchor), 100 nM annealed; ATP concentration: 500 uM
Measured Endpoint: switch fluorescence ratio
Number, no unit, nothing else.

Asked: Need switch fluorescence ratio, item `CACCCTTTGT`
Given back: 0.991

Asked: Similarly, `TTTGTGTTCA` ?
Given back: 0.988

Asked: Also need `AAATGGGAGA` , thanks.
Given back: 0.992

Asked: And what about the sequence `TTTCGTGTTG` ?
Given back: 1.01

Asked: What do we get for `TAGCACGGAT` ?
Given back: 1.02

Asked: Same lookup for `GTAGGTAGGT` , please.
Given back: 0.99

Asked: Then `GAATCGGCGT` ?
Given back: 0.991

Asked: `ATCCCTTGAG` ?
Given back: 0.992

Asked: # repeat for `ACGTATGTTG`
Given back: 1.02

Asked: Please answer likewise for `TTTTTGAGAT`
Given back: 0.994

Asked: Field entry: `TCGTGCGGGT`
Given back: 1

Asked: Now the same for `GCGTAACAGT`
Given back: 0.964

Asked: Do the same for `ATATGTGTTT` please
Given back: 1.05

Asked: Then this sequence: `GAGTGGGATT`
Given back: 0.981

Asked: And what about the sequence `TTCTGTTTTA` ?
Given back: 1.05

Asked: Item: `GAGTATGAGA`
Given back: 1.01

Asked: Entry `TTAGTTTTTT` please
Given back: 1.01

Asked: Try `TCAACAGTTG` next.
Given back: 0.998

Asked: Would you mind doing `TAGTTGTTTT` as well?
Given back: 1

###

- Test system: ATP;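 note: ATP exposure 15 min at 22 °C before imaging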
- Experiment Notes: switch fluorescence ratio, 500 uM ATP over buffer (Cy3 cluster intensity, sum of 5 cycles each) (fold (ratio)); higher = stronger signal-on switching upon ATP binding; sequences stand for … in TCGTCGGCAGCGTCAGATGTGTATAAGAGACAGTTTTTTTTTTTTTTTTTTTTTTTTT…TC
- Condition Parameters: aptamer strand: ATP DNA aptamer (quencher-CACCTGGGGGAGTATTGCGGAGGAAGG + anchor), 100 nM annealed; ATP concentration: 500 uM
Measured Endpoint: switch fluorescence ratio
// return just the number, without any unit appended

// below: answered sequences
CATGGGGAAG = 1.02
AGGAGGCATG = 0.986
GGGAGAAAGT = 0.999
AATGGTGAAT = 0.996

Field: next sequence
Asked: Item under review: `GGTGATCGGC` . Reported switch fluorescence ratio?
Given back: 0.986

###

- Test system: ATP;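 note: ATP exposure 15 min at 22 °C before imaging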
- Experiment Notes: switch fluorescence ratio, 500 uM ATP over buffer (Cy3 cluster intensity, sum of 5 cycles each) (fold (ratio)); higher = stronger signal-on switching upon ATP binding; sequences stand for … in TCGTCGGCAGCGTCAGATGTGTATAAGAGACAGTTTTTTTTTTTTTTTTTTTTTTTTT…TC
- Condition Parameters: aptamer strand: ATP DNA aptamer (quencher-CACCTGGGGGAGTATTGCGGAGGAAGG + anchor), 100 nM annealed; ATP concentration: 500 uM
Measured Endpoint: switch fluorescence ratio

Completed entries (count: 8):
AGACCGTGTT = 1.03
CTATGTTATT = 1.01
GAAGCGGTGG = 0.954
GATTATAGTA = 0.952
CACGGGTTGC = 1.02
CTTTACTCAC = 1.27
AGAAAGGGCA = 1.04
GCGTAAGTGC = 1.09

Asked: Query (sequence): `GTTTTTCGCC` ; field requested: switch fluorescence ratio
Given back: 1

Asked: Also, `AGACAGGGG` please.
Given back: 1.04

Asked: Please give the result for `CATGCGCTGG` too.
Given back: 1.17

###

- System: ATP;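 note: ATP exposure 15 min at 22 °C before imaging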
- Experiment Notes: switch fluorescence ratio, 500 uM ATP over buffer (Cy3 cluster intensity, sum of 5 cycles each) (fold (ratio)); higher = stronger signal-on switching upon ATP binding; sequences stand for … in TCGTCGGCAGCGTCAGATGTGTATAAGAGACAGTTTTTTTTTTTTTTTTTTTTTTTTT…TC
- Condition Parameters: aptamer strand: ATP DNA aptamer (quencher-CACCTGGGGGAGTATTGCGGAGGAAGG + anchor), 100 nM annealed; ATP concentration: 500 uM
Measured Endpoint: switch fluorescence ratio
Format: numeric value only, no unit, no commentary.

Consider the reported switch fluorescence ratio for these sequences:
CGGGTTGGGA = 1.01
GATTACAGTG = 1.02
AGGCCTTTTC = 1.01
GTGGGGGGCG = 1

Asked: // switch fluorescence ratio lookup, key: `GGGGGTTGGT`
Given back: 0.996

Asked: Proceed to `ATGAATTTGC`
Given back: 0.979

###

- Test system: ATP;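 note: ATP exposure 15 min at 22 °C before imaging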
- Experiment Notes: switch fluorescence ratio, 500 uM ATP over buffer (Cy3 cluster intensity, sum of 5 cycles each) (fold (ratio)); higher = stronger signal-on switching upon ATP binding; sequences stand for … in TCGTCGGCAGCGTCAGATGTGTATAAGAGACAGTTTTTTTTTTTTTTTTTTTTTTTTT…TC
- Condition Parameters: aptamer strand: ATP DNA aptamer (quencher-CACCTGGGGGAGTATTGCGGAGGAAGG + anchor), 100 nM annealed; ATP concentration: 500 uM
Measured Endpoint: switch fluorescence ratio

Worked cases, answers included:
CCTATTAGG = 1
CAAAGCAAAA = 2.36
AACAGAGGGG = 1.01

Asked: Would you kindly share the measured switch fluorescence ratio for `TTTAAAGCTT` ?
Given back: 1.01

Asked: Same question for `TATTAAGCGA` please.
Given back: 1.05

Asked: Same for `AGTATTTTTT`
Given back: 0.995

###

- Tested on: ATP;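 note: ATP exposure 15 min at 22 °C before imaging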
- Experiment Notes: switch fluorescence ratio, 500 uM ATP over buffer (Cy3 cluster intensity, sum of 5 cycles each) (fold (ratio)); higher = stronger signal-on switching upon ATP binding; sequences stand for … in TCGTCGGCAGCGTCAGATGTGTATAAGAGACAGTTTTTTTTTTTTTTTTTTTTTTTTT…TC
- Condition Parameters: aptamer strand: ATP DNA aptamer (quencher-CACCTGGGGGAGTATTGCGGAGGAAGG + anchor), 100 nM annealed; ATP concentration: 500 uM
Measured Endpoint: switch fluorescence ratio
Lab note: record just the number, no unit beside it.

Reference set, count: 6
TCTTAGGCTG = 1.01
AGGGTGATTG = 1.01
GCTGCGGCAG = 1.01
AGGCCGGGGG = 0.992
ATCATTGAA = 0.986
ATCGGGGCAC = 1.1

Asked: What value of switch fluorescence ratio has been recorded for this entry: `TTCTGAGAAT`
Given back: 1.04

Asked: Please do the same for `ACGTTTTAA` as well.
Given back: 1

Asked: Try this sequence too: `TTTTGTGGTT`
Given back: 1.02

Asked: Further, for `GGCGGCGGGA` ?
Given back: 0.998

###

- System: ATP;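 note: ATP exposure 15 min at 22 °C before imaging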
- Experiment Notes: switch fluorescence ratio, 500 uM ATP over buffer (Cy3 cluster intensity, sum of 5 cycles each) (fold (ratio)); higher = stronger signal-on switching upon ATP binding; sequences stand for … in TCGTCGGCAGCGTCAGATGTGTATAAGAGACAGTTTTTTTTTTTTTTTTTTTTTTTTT…TC
- Condition Parameters: aptamer strand: ATP DNA aptamer (quencher-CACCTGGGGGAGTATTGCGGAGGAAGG + anchor), 100 nM annealed; ATP concentration: 500 uM
Reported switch fluorescence ratio is given for each of the following sequences.
Respond using a number only.

Asked: Return reported switch fluorescence ratio; argument: `GCAGGGGAGT`
Given back: 1.17

###

- Test system: ATP;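 note: ATP exposure 15 min at 22 °C before imaging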
- Experiment Notes: switch fluorescence ratio, 500 uM ATP over buffer (Cy3 cluster intensity, sum of 5 cycles each) (fold (ratio)); higher = stronger signal-on switching upon ATP binding; sequences stand for … in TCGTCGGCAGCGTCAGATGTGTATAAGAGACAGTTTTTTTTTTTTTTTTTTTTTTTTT…TC
- Condition Parameters: aptamer strand: ATP DNA aptamer (quencher-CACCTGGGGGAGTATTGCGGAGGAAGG + anchor), 100 nM annealed; ATP concentration: 500 uM
Could you label it condition met if measured switch fluorescence ratio is 1 or higher, and condition not met otherwise?

Example cases with answers are listed next.
TTTCTGTGCT = condition not met
CACTTAAGGC = condition met
ACGGAAATGT = condition met
TCCCTAACAC = condition met

Asked: Does the reported switch fluorescence ratio for `TTTGGGAGGG` fall at or above the 1 mark?
Given back: condition not met

Asked: // next record `TGAGGAAGAC`
Given back: condition met

Asked: Next: `TCGTTGAATG`
Given back: condition not met

Asked: Likewise for `TAGCTTCTGC` ?
Given back: condition not met
